Target Of Assay: T1, human LAG-3 on cells (HEK293-hLAG-3 stable cell line) (human, UniProt P18627 23-525)
T1 sequence: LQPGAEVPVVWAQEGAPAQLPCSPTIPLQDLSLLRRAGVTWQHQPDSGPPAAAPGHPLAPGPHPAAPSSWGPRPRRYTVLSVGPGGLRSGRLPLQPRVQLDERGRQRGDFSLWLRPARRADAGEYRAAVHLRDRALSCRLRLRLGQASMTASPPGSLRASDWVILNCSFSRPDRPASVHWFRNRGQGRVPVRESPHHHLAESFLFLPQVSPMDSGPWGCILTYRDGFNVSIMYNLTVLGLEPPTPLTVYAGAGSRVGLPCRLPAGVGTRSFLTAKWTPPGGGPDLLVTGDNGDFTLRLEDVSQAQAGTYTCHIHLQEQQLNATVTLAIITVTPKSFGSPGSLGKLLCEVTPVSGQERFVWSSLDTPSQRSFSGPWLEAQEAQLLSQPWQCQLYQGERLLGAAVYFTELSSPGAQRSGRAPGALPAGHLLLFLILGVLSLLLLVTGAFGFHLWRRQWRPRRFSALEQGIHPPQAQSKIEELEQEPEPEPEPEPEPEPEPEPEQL
Test Description: cell-based or functional assay
Label rule, in plain words: IL-2 production, antigen-specific T lymphocyte stimulation test, 0.016 ug/ml, N = 1 of 400 pg/mL and up is 1, under 400 pg/mL is -1.

Query block: Confirm if IL-2 production, antigen-specific T lymphocyte stimulation test, 0.016 ug/ml, N = 1 reported for the binder 409D4E10 mouse-human chimeric antibody (antibody, V domains shown, also called mAb112-409D4E10) VH: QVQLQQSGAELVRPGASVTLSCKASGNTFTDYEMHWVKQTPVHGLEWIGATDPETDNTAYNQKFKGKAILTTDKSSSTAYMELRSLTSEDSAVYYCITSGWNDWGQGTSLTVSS VL: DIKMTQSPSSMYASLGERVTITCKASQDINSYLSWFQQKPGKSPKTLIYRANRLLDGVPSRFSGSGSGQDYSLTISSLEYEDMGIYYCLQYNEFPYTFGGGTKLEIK is 400 pg/mL or above.
Result block: -1

Query block: Confirm if IL-2 production, antigen-specific T lymphocyte stimulation test, 0.016 ug/ml, N = 1 reported for the binder 556F6B8 mouse-human chimeric antibody (antibody, V domains shown, also called mAb123-556F6B8; 556F8B8) VH: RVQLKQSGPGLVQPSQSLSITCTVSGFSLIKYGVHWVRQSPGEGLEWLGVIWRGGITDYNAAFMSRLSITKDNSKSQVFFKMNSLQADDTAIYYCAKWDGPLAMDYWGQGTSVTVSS VL: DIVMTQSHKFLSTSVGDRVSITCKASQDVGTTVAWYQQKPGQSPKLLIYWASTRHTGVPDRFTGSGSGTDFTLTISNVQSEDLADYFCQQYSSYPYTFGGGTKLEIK is 400 pg/mL or above.
Result block: -1

Query block: Confirm if IL-2 production, antigen-specific T lymphocyte stimulation test, 0.016 ug/ml, N = 1 reported for the binder 405B8H3 mouse-human chimeric antibody (antibody, V domains shown, also called mAb103-405B8H3) VH: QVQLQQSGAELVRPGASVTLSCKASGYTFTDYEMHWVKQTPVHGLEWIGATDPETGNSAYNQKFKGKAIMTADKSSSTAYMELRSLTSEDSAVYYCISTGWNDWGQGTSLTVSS VL: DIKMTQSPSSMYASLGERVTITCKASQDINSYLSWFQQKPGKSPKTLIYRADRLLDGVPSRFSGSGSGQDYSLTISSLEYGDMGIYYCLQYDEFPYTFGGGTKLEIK is 400 pg/mL or above.
Result block: -1

We now examine a further binder.
Query block: Confirm if IL-2 production, antigen-specific T lymphocyte stimulation test, 0.016 ug/ml, N = 1 reported for the binder 105F1E10 mouse-human chimeric antibody (antibody, V domains shown, also called mAb009-105F1E10) VH: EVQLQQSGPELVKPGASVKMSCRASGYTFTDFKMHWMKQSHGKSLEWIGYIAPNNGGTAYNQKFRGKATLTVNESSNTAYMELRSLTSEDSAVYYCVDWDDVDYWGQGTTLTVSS VL: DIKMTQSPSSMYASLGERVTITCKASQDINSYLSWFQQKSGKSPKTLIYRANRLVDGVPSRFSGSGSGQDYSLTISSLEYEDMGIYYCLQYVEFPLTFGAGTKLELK is 400 pg/mL or above.
Result block: 1
